# protocol summary: yeast display, Sf9 membrane polyspecificity reagent, FACS + sequencing; frameworks hold sequencing errors
endpoint: polyreactivity (PSR sort gate)

Reference set, count: 4
chain sequence	endpoint	assay value
QVQLVESGGGLVQAGGSLRLSCAASGRTFLYNALGWYRQAPGKERELVAAISWSGGSTYYADSVKGRFTISRDNAKNTVYLQMNSLKPEDTAVYYCAATGRRSGFFYWGQCTQVTVSS	polyreactivity (PSR sort gate)	high polyreactivity
QVQLVESGGGLVQAGGSLRLSCAASGRIFRGYAMGWYRQAPGKERELVAAITRGGSTKYADSVKGRFTISRDNAKNTVYLQMNSLKPEDTAVYYCAKDSYPYVPLYRSRSLYGYWGQGTQVTVSS	polyreactivity (PSR sort gate)	high polyreactivity
QVQLVESGGGLVQAGGSLRLSCAASGRTFHIYAMGWYRQAPGKERELVAAIRGRSGSTYYADSVKGRFTISRDNAKNTVYLQLNSLKPEDTAVYYCAVGRYPYGSARYRFDYWGQGTQVTVSS	polyreactivity (PSR sort gate)	high polyreactivity
QVQLVESGGGLVQAGGSLRLSCAASGFIFRVNAMGWYRQAPGKERELVAAISRRGGSTYYADSVKGRFTISRDNAKNTVYLQMNSLKPEDTAVYYCAVKGASYPAYRGYDYWGQGTQVTVSS	polyreactivity (PSR sort gate)	high polyreactivity

Continue with the sequence presented below.
Request: Entry under review: `QVQLVESGGGLVQAGGSLRLSCAASGLIFASYAMGWYRQAPGKERELVAAISWSGGSTYYADSVKGRFTISRDNAKNTVYLQMNSLKPEDTAVYYCAARKLFIPKYYYWGQGTQVTVSS` . Reported polyreactivity (PSR sort gate)?
Result: high polyreactivity
